testedSystem: human natriuretic peptide receptor B (NPR-B) (human) (UniProt P20594)
Sequence (P20594 23-1047): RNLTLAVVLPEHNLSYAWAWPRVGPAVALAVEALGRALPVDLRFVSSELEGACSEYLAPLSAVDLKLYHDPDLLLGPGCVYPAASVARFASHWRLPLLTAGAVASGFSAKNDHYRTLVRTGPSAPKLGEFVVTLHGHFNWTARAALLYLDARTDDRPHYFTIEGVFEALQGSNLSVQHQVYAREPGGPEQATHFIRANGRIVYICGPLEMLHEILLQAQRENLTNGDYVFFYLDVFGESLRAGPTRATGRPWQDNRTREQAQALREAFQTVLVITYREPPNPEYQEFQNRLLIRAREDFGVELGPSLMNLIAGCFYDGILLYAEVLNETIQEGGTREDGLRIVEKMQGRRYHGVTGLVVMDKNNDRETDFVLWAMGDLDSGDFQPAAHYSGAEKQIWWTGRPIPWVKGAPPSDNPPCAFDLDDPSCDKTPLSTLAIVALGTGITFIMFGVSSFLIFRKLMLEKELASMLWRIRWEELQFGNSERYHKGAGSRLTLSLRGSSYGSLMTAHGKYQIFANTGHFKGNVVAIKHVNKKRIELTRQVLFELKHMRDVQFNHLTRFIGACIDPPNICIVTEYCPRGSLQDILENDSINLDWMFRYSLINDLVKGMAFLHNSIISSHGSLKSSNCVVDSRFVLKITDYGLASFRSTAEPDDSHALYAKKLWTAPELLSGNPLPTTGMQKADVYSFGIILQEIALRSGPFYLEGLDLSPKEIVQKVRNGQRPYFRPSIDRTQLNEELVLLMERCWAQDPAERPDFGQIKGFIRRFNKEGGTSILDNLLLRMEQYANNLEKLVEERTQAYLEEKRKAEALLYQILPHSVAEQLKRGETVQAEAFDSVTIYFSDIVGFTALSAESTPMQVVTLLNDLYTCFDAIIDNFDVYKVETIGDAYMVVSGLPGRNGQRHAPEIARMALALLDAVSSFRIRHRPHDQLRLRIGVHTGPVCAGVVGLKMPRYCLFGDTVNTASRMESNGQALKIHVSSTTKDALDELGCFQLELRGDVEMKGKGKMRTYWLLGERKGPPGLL
assaySummary: cell-based or functional assay
// assign met if EC50 Ratio versus CNP22 falls strictly below 70, else not met (ties count as not met)

binder	labelValue
GLSKGCFGLKLDRIGSMSGLGCGGGGSGGGGSGGGGDDDDDD [CNP-14AAlinker-D6 [C4]]	not met
EEEEEEHKLRGQEHPNARKYKGANKKGLSKGCFGLKLDRIGSMSGLGC [KB1(E6)]	met

[ask] Is it true that EC50 Ratio versus CNP22 reported for EEEEEESGGGGSGGGQGANKQGLSKGCFGLKLDRIGSMSGLGC [C11(E6) [BC11]] is less than 70?
[reply] met

[ask] Please state whether EC50 Ratio versus CNP22 is below 70 for EEEEEESGGGGSGGGQGANQQGLSKGCFGLKLDRIGSMSGLGC [C5(E6) [BC5]]
[reply] not met

[ask] Is EC50 Ratio versus CNP22 strictly under 70 for the entry EEEEEEHGPQGQEHPNARKYKGANKKGLSKGCFGLKLDRIGSMSGLGC [KA1(E6)] ?
[reply] met

[ask] Say whether its EC50 Ratio versus CNP22 is strictly beneath 70. Entry: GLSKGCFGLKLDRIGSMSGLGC [human CNP22]
[reply] met
